Where do the numbers come from? From PubChem BioAssay (NCI).

Tested on: U251 CNS
assay-remarks: NCI tumour cell line growth inhibition, 48 h
Entries and their GI50

Worked cases, GI50 given:
smiles-record: COc1ccc(-n2nc(C)c3c(Nc4ccc(NC(=O)Nc5cc(C(F)(F)F)ccc5F)cc4)ncnc32)cc1
GI50: 1770 nM
//
smiles-record: N#C/C(=C/c1cccs1)c1cccs1
GI50: > 100000 nM
//
smiles-record: CN1CCN(c2ccc3nc(-c4ccc5nc(-c6ccc(C(F)(F)F)cc6)[nH]c5c4)[nH]c3c2)CC1
GI50: 1620 nM

Data request: Record request: GI50 value, item `CO/N=C(\COc1ccc2c(=O)cc(-c3ccccc3)oc2c1)c1ccc(OC)cc1`
Data returned: > 100000 nM

---

Tested on: DU-145 prostate
assay-remarks: NCI tumour cell line growth inhibition, 48 h
readout-name: TGI

Worked cases, TGI given:
compound: C[n+]1ccccc1/C=C/c1ccc2c(c1)OCO2
TGI: > 10 µM

compound: CC(=O)OC1C(O)COC(Oc2c(C)c3c4c(c2O)[C@@H](C)CC[C@@H]4[C@@H](C)C[C@H]3C=C(C)C)C1O (stereo partly specified)
TGI: 29 µM

compound: Cc1cc2cc(Oc3ccnc(Nc4cccc(CS(=O)(=O)NCCN(C)C)c4)n3)ccc2[nH]1
TGI: 21.6 µM

compound: C1CSCCSS[C@@H]2CCCCC2SC1 (stereo partly specified)
TGI: > 100 µM

compound: c1csc(-c2cc(-c3ccsc3)c(-c3cccs3)s2)c1
TGI: > 100 µM

Data request: Record request: TGI value, item `CCCCNC(=O)C1=C(C)NC(C)=C(C(=O)NCCCC)C1`
Data returned: > 100 µM

Data request: Same lookup for `COc1ccc(-n2c(C)nc3ccc(N=Cc4ccccc4)cc3c2=O)cc1` , please.
Data returned: > 100 µM

Data request: Same lookup for `Oc1ccc2ccccc2c1N=Nc1ccc(N=Nc2ccccc2)cc1` , please.
Data returned: > 100 µM

Data request: Same lookup for `COC(=O)c1ccc(NCc2cc(O)c3ccccc3c2O)cc1` , please.
Data returned: 30.3 µM

Data request: Same lookup for `Cc1cc(Cl)ccc1OCC(=O)Oc1c(Cl)c(Cl)c(Cl)c(Cl)c1Cl` , please.
Data returned: 49.2 µM

Data request: Same lookup for c1ccc(SCCP(CCP(c2ccccc2)c2ccccc2)c2ccccc2)cc1 (stereo unspecified) , please.
Data returned: > 100 µM

---

Test system: RXF-631 renal
assay-remarks: NCI tumour cell line growth inhibition, 48 h
Entries and their TGI

Worked cases, TGI given:
compound: CC[O+]=c1cccc2ssnc1-2
TGI: > 100 µM

compound: CN1NC(c2ccccc2)=C(C#N)C(=O)CC1c1ccccc1Cl (stereo unspecified)
TGI: > 100 µM

compound: COC(=O)/C=C\C1C(C(=O)OC)C2(C(=O)OC)CCC1(C(=O)OC)N2 (stereo unspecified)
TGI: 48.7 µM

compound: CN1C(=O)c2cccc3c([N+](=O)[O-])ccc(c23)C1=O
TGI: 17.6 µM

compound: CC(C)c1cccc2sc(NC(=O)C(=O)CC(=O)c3ccc(F)cc3)nc12
TGI: > 100 µM

From here, focus on the item given below.
Data request: Record request: TGI value, item CCC1(c2ccncc2)CCC(=O)NC1=O (stereo unspecified)
Data returned: > 100 µM

---

System: DMS 273 small cell lung
assay-remarks: NCI tumour cell line growth inhibition, 48 h
Entries and their TGI

molecule: CC1(Br)C(=O)NC(=O)N([C@H]2C[C@H](O)[C@@H](CO)O2)C1N=[N+]=[N-] (stereo partly drawn)
TGI: > 100 µM
//
molecule: CC(=O)[CH-]C(=O)c1ccccc1.CC(=O)[CH-]C(=O)c1ccccc1.CC(C)CCCC(C)[C@H]1CCC2[C@@H]3CCC4C[C@@H]([O-])CC[C@]4(C)C3CC[C@@]21C.CC(C)CCCC(C)[C@H]1CCC2[C@@H]3CCC4C[C@@H]([O-])CC[C@]4(C)C3CC[C@@]21C.Cl.[Ti+4] (stereo partly drawn)
TGI: > 25 µM

Data request: Record request: TGI value, item O=C1c2ccccc2N2OC3C4CCC(C4)C3C12c1ccccc1 (stereo not drawn)
Data returned: > 100 µM

---

System: 786-0 renal
assay-remarks: NCI tumour cell line growth inhibition, 48 h
readout-name: TGI

compound: N#CC1(C#N)C(c2ccccc2)NC23CCCCC2C1(C#N)C(=O)N3 (stereo not drawn)
TGI: > 100 µM
--
compound: CN1CCN(c2ccc3nc(-c4ccc5nc(-c6ccc(C(F)(F)F)cc6)[nH]c5c4)[nH]c3c2)CC1
TGI: 12.7 µM
--
compound: C=CC1(C)/C(=N\O)C(C)(CC)C(=O)N1O (stereo not drawn)
TGI: > 100 µM

Data request: Enter reported TGI observed with 786-0 renal for `O=c1[nH]ncc2[nH]c3c(c12)CCCc1ccccc1-3`
Data returned: > 100 µM

Data request: Same lookup for `CCOC(=O)c1c(N2CCOCC2)[nH]c(=O)c(C(c2ccc(N(C)C)cc2)c2c(O)c(C(=O)OCC)c(N3CCOCC3)[nH]c2=O)c1O` , please.
Data returned: > 100 µM

---

Tested on: A549 NSCLC
assay-remarks: NCI tumour cell line growth inhibition, 48 h
Entries and their TGI

compound: C[C@H](C(=O)N1C(=O)O[C@@H](c2ccccc2)[C@H]1C)[C@H](c1ccccc1)N(Cc1ccccc1)OC(=O)c1ccccc1
TGI: > 100 µM
//
compound: C#CCCCCC#CC1CCCC1C1=CC(=O)c2ccccc21 (stereo not given)
TGI: 30 µM
//
compound: Nc1nc(N)c2ncn(Cc3c(Cl)cccc3Cl)c2n1
TGI: > 100 µM

Data request: Record request: TGI value, item `CC(=O)N1C(=O)C(=O)c2cc(Cl)ccc21`
Data returned: > 100 µM

Data request: Same lookup for CC(=O)C1CC2(c3ccccc3)C(=O)c3ccccc3N2O1 (stereo not given) , please.
Data returned: > 100 µM

Data request: Same lookup for `Nc1nonc1-c1noc(-c2nonc2N)[n+]1[O-]` , please.
Data returned: 90.7 µM

Data request: Same lookup for `Cn1cc(C=C(C#N)C#N)c(=O)n(C)c1=O` , please.
Data returned: > 100 µM

Data request: Same lookup for `CNNC1=NS(=O)(=O)c2cc(C(=O)OC)c(Cl)cc2S1` , please.
Data returned: > 10 µM

Data request: Same lookup for `Cc1cc(C)c(S(=O)(=O)Oc2ccccc2[N+](=O)[O-])c(C)c1` , please.
Data returned: > 100 µM

Data request: Same lookup for `C=C(C)[C@@H]1CC[C@]2(C)[C@H](CC=C3[C@@H]4CC(C)(C)CC[C@]4(C(=O)OC)CC[C@]32C)[C@@]1(C)CC/C(N)=N/O` , please.
Data returned: 7.75 µM

Data request: Same lookup for CNC(=O)OC(C)CN1c2ccccc2Sc2ccccc21 (stereo not given) , please.
Data returned: > 100 µM

---

Entries and their TGI
Test system: HCT-116 colon
assay-remarks: NCI tumour cell line growth inhibition, 48 h

Worked cases, TGI given:
molecule: O=C(O)C1(C(=O)O)CCN(S(=O)(=O)c2ccccc2)CC1
TGI: > 100 µM

molecule: O=c1[nH]ncc2[nH]c3c(c12)CCCc1ccccc1-3
TGI: > 100 µM

molecule: COc1cccc(NC(=O)c2ccc(C(F)(F)F)nc2Nc2ccc(Cl)cc2C)c1
TGI: 22.9 µM

molecule: Cc1ccc(-c2n[nH]c(CC#N)n2)cc1
TGI: > 100 µM

molecule: CCc1nc2cc(/C=C/C(=O)NO)c(F)cc2c(=O)n1CCc1ccccc1
TGI: 2.91 µM

Data request: Record request: TGI value, item `CCOC(=O)c1c2ccccc2n2c(=O)n(C)nnc12`
Data returned: > 100 µM

Data request: Same lookup for `Cc1occc1C(=S)Nc1ccc(Cl)c(C(=O)OCC2CC2)c1` , please.
Data returned: > 100 µM

Data request: Same lookup for `Cn1c(-c2c(N)n(Cc3ccc(Cl)cc3)c3nc(C#N)c(C#N)nc23)nc2ccccc21` , please.
Data returned: > 50 µM

Data request: Same lookup for `CC(C)C(OC(=O)c1cc(NC(=S)c2ccccc2)ccc1Cl)C(C)C` , please.
Data returned: 40.8 µM

Data request: Same lookup for `COc1cc([N+](=O)[O-])c(S(=O)(=O)O)cc1-n1nc(-c2ccccc2)n[n+]1-c1cc(S(=O)(=O)[O-])c([N+](=O)[O-])cc1OC` , please.
Data returned: > 100 µM

Data request: Same lookup for `CCOC(=O)NC(=O)c1cn(-c2ccc(CCOC(=O)CCCCCCCCC(=O)OCCc3ccc(-n4cc(C(=O)NC(=O)OCC)c(=O)[nH]c4=O)cc3)cc2)c(=O)[nH]c1=O` , please.
Data returned: > 100 µM

Data request: Same lookup for `S=C(S)NCCCn1ccnc1` , please.
Data returned: > 100 µM

Data request: Same lookup for `COc1cc(C)c(N(C)C(=O)CN(C)C)cc1Nc1nc(Nc2cccc(F)c2C(N)=O)c2cc[nH]c2n1` , please.
Data returned: > 25 µM

Data request: Same lookup for `Cn1c2nc(=Nc3ccc(Cl)cc3)n3ccc4ccccc4c3c2c(=O)n1-c1ccccc1` , please.
Data returned: > 100 µM
